Values compiled from patent US20100260765A1.

Target: T1, soluble KDR extracellular domain (ECD) (Calbiochem) (human, UniProt P35968 20-764)
T1 construct: extracellular domain; Bought protein; also called KDR-ECD; VEGF Receptor 2 D1-7, Cat. #676490
T1 sequence (P35968 20-764): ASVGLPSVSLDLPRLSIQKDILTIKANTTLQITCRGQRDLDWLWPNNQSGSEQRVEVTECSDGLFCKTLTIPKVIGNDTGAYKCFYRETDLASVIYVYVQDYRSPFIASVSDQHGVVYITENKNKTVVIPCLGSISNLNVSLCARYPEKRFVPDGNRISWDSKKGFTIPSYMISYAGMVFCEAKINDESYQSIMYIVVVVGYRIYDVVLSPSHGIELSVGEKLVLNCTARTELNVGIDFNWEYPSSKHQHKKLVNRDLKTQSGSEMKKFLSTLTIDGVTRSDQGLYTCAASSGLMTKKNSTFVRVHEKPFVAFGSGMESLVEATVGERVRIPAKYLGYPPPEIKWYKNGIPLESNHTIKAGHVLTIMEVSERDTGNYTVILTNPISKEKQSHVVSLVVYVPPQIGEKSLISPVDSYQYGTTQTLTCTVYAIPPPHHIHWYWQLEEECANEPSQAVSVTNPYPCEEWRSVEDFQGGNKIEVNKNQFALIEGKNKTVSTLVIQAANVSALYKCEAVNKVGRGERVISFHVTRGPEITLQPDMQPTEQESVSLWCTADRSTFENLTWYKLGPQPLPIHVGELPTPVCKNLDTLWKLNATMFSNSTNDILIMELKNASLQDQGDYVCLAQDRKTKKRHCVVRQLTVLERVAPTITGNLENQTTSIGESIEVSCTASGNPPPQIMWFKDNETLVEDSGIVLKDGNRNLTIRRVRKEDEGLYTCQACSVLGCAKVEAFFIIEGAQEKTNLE
Test Method Notes: High Antigen ELISA, KDR coat 500 ng/mL, supernatant 1:25
Answer each item with its documented ELISA reading.
Answer with a number only.

Q) For the binder shown here, 30D7 (antibody, V domains shown, Fully human mAb from XenoMouse hybridoma, tested as hybridoma supernatant) VH: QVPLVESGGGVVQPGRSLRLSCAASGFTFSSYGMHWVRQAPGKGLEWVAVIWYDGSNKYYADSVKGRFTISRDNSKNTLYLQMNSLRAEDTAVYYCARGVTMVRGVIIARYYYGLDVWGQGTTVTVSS VL: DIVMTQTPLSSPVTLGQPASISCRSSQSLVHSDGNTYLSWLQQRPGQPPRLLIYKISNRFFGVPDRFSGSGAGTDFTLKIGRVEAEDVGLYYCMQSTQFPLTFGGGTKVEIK , give the reported ELISA reading.
A) 4.66

Q) Then what about the binder 29H3 (antibody, V domains shown, Fully human mAb from XenoMouse hybridoma, tested as hybridoma supernatant) VH: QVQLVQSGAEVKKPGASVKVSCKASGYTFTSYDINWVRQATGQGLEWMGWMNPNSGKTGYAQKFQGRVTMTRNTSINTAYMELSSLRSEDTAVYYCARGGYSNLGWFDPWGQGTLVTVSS VL: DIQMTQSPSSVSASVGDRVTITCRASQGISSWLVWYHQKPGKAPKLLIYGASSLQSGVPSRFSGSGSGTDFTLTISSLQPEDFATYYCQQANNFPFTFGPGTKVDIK ?
A) 4.52
